Target: Mast/stem cell growth factor receptor Kit (Homo sapiens) (UniProt P10721);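 also: values given as mean inhibition of KIT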
Sequence (P10721 whole entry): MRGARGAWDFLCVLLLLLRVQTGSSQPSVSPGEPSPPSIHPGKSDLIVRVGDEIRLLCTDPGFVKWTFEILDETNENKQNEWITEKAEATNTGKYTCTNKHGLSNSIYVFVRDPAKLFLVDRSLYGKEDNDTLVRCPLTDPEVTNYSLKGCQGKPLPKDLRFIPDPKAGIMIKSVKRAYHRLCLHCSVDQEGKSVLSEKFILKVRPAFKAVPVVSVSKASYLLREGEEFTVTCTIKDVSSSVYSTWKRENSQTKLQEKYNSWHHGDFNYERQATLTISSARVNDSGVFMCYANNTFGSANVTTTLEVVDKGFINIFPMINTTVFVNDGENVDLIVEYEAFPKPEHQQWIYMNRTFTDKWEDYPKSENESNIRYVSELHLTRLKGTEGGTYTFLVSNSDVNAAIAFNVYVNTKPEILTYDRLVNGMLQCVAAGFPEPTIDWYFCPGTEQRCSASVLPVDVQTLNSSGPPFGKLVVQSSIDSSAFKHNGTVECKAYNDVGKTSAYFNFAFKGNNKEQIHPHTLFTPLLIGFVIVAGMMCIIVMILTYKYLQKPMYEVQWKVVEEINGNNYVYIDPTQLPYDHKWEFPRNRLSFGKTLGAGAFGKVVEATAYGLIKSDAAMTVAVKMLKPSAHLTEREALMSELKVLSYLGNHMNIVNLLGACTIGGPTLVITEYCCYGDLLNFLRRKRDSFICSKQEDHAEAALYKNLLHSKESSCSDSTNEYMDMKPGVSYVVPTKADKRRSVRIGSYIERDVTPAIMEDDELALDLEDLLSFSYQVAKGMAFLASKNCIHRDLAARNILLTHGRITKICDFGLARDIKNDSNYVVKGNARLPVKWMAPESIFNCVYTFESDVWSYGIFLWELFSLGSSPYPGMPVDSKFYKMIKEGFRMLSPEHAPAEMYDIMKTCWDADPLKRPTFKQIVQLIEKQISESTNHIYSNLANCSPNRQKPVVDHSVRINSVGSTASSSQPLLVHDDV
Details: at 1 µM
compounds and their reported inhibition
Report as a plain number; the unit % is understood.

Below: 4 compounds and their reported inhibition.
[
  {
    "Compound String": "Cc1ccc2c(c1)/C(=N/Nc1ccc(S(N)(=O)=O)cc1)C(=O)N2",
    "inhibition / %": 80.1
  },
  {
    "Compound String": "CCn1c(-c2nonc2N)nc2c(C#CC(C)(C)O)nc(OCCNC)cc21",
    "inhibition / %": 6.66
  },
  {
    "Compound String": "NS(=O)(=O)c1cccc(-c2cc3ccncc3cc2OCc2ccccc2)c1",
    "inhibition / %": 8.38
  },
  {
    "Compound String": "Nc1ccc(C#Cc2cncnc2Nc2ccc(OCc3cccc(F)c3)c(Cl)c2)cc1",
    "inhibition / %": 5.56
  }
]

Task item: Return reported inhibition. Input compound: `OCc1ccc(-c2nc(-c3ccccn3)c(-c3ccc4c(c3)OCO4)[nH]2)cc1`
Reply: 3.32

Task item: Supply measured inhibition of `Cc1cc(-c2ccccn2)cc(C)c1/C=C/c1cncc(-c2nn[nH]n2)c1` in your reply.
Reply: 6.45

Task item: Write down inhibition measured for item `CN(C)c1cc2c(Nc3ccc4c(cnn4Cc4ccccc4)c3)ncnc2cn1`
Reply: 3.38

Task item: State, in one line, measured inhibition of `CC(C)c1ccc2c(c1)NC(=O)/C2=N/Nc1ccc(S(N)(=O)=O)cc1`
Reply: 31.5

Task item: Specify reported inhibition for the compound shown: `COc1cc(Nc2nccc(-c3cnn4ncccc34)n2)cc(OC)c1`
Reply: 97.3

Task item: Output measured inhibition for this item: `COc1cccc(-n2ncc3c(N/N=C/c4ccc(S(C)(=O)=O)cc4)ncnc32)c1`
Reply: 61.6

The measured values listed here are drawn from ChEMBL document CHEMBL1961873.
